Tested on: 786-0 renal
Experiment: NCI-60 one-dose screen, 48 h (100 = growth as untreated, 0 = no growth, -100 = all killed)
Conditions: 10 µM unless noted
Compounds without any hit were thinned out: in the full panel of roughly 83,000, 20% have a hit. Calls of active or inactive are those of the source. How the source made its calls: active means growth percent below 10; inactive means the rest.
quantity.kind: growth

compound | assay.result
OCc1ccc(N2CCc3cccc(F)c3C2)cc1Cl | 66.4% [0.1 µM] (inactive)
OCC(O)c1nc2ccc3[nH]ncc3c2c2c1CCCC2 (stereo unspecified) | 4.15% (active)
FC(F)(F)c1[nH]ncc1-c1nc2ccc3n[nH]c(C#Cc4cccnc4)c3c2c2c1CCCC2 | 30.7% (inactive)
COc1cc(-c2ccc3c(c2)NC(=O)/C3=C\c2ccc[nH]2)ccc1O | 14.8% (inactive)
COc1ccc(-c2n[nH]nc2-c2csc3ccccc23)cc1OC | 30.7% (inactive)
Cc1cc(N2CCCC2)nc(NC2CCCC(Nc3ccnc4cc(Cl)ccc34)C2)n1 (stereo unspecified) | -91.1% (active)

###

growth reference
System: MCF7 breast
Experiment: NCI-60 one-dose screen, 48 h (100 = growth as untreated, 0 = no growth, -100 = all killed)
Settings: 10 µM unless noted
This is part of a sample that, as a whole, favours compounds with a hit. Of some 83,000 tested, about 20% had one in any assay.

chemical.structure | readout.units | growth
Cn1cc(-c2nonc2-c2c[nH]c3ccccc23)c2cccnc21 | % | 19.4
C=C(C)[C@@H]1CC[C@]2(C(=O)OC)CC[C@]3(C)[C@H](CC[C@@H]4[C@@]5(C)C/C(=C/c6ccc(OC)cc6)C(=O)C(C)(C)[C@@H]5CC[C@]43C)[C@@H]12 | % | 49.1
O=C1/C(=C/c2ccc(OCCCOc3ccc(Cl)cc3)cc2)N=C2SCCCN12 | % | 69.5
Cc1cc(N[C@@H]2CCC[C@H](Nc3ccnc4cc(Cl)ccc34)C2)nc(N2CCCCCC2)n1 | % | -63.1
Cc1cc2nc3[nH]c4ccccc4c3nc2cc1C | % | 48.2
NCCNc1nc(Nc2ccc(-c3nc4ccccc4[nH]3)cc2)c2cn[nH]c2n1 | % | 39.2
O=c1cc(CSc2nnc(-c3ccc(F)cc3)o2)c2ccc3ccccc3c2o1 | % | 93.5
CNc1ccc(-c2cc(=O)oc3ccc(Cl)cc23)cc1 | % | 18.3
Cc1cc(NS(=O)(=O)c2ccc(-c3cnc(C4CC4)o3)cc2)ccc1Cl | % | 11.1

###

Tested on: HCT-116 colon
Assay: NCI-60 one-dose screen, 48 h
Settings: 10 µM unless noted
This is part of a sample that, as a whole, favours compounds with a hit. Of some 83,000 tested, about 20% had one in any assay. Active and inactive are the calls of the source. How the source made its calls: active means growth percent below 10; inactive means the rest.
Classes used: active, inactive

compound | tested.target | assigned.label
O=CNc1ccc2c(c1)Cc1cccc(NC=O)c1-2 | HCT-116 colon | inactive
O=C1c2cccc3cccc(c23)C(=O)N1CCCCCN1CCN(CCCCCOc2ccc(-c3nc4ccc(N5CCOCC5)cc4[nH]3)cc2)CC1 | HCT-116 colon | inactive
O=C1/C(=C/c2ccccc2)SC(=S)N1CCc1ccc(O)cc1 | HCT-116 colon | inactive
CSc1nc(NCCO)c(C#N)c(-c2cccc([N+](=O)[O-])c2)n1 | HCT-116 colon | inactive
COC(=O)c1ccc(NC(=O)c2ccc(-c3cccc([N+](=O)[O-])c3)o2)cc1 | HCT-116 colon | inactive
CCCCn1c(-c2ccc(C(=O)O/N=C(\N)c3ccc4ccccc4c3)cc2)nc(-c2ccccc2)c1-c1ccccc1 | HCT-116 colon | inactive
COc1ccc(-c2nc3ccc(-c4nc5ccc(N6CCN(c7ccccc7)CC6)cc5[nH]4)cc3[nH]2)cc1OC | HCT-116 colon | active
CNC(=O)c1cc(Oc2ccc(NC(=O)Nc3ccc(Cl)c(OC(F)(F)F)c3)c(F)c2)ccn1 | HCT-116 colon | inactive
O=C1c2ccccc2C(=O)c2c1ccc1[nH]c(-c3cccs3)nc21 | HCT-116 colon | inactive
Cc1cc(N2CCOCC2)nc(N[C@@H]2CCC[C@H](Nc3ccnc4cc(Cl)ccc34)C2)n1 | HCT-116 colon | active
O=[N+]([O-])c1ccccc1/C=N\NC(=S)N/N=C/c1ccccc1[N+](=O)[O-] | HCT-116 colon | inactive
COc1cc(-c2nc3ccccc3[nH]2)ccc1OCc1nnc(-c2ccc(CC(C)C)cc2)o1 | HCT-116 colon | inactive
Cc1ccc(NS(=O)(=O)c2ccc(-c3cnc(C4CC4)o3)cc2)cc1C | HCT-116 colon | inactive
CC1=C[C@H]2c3c(c(O)c(O)c4oc5cc(O)ccc5c(=O)c34)[C@H](c3cc(O)c(O)c4oc5cc(O)ccc5c(=O)c34)[C@H]2C(C)(C)C1 | HCT-116 colon | active
CC(=O)OCCC/C(=C/c1cc2ccccc2c2ccccc12)[N+](=O)[O-] | HCT-116 colon | active
COc1cc(C(=O)Oc2ccccc2OC(=O)c2cc(OC)c(OC)c(OC)c2)cc(OC)c1OC | HCT-116 colon | inactive
CCCOc1ccc2nc(NC(=O)OC)[nH]c2c1 | HCT-116 colon | active
COc1ccc(SC2c3ccc(C)cc3Oc3nc(N)c(C#N)c(N)c32)cc1 (centres undefined) | HCT-116 colon | active
Brc1ccc(-c2csc(Nc3ccccn3)n2)cc1 | HCT-116 colon | inactive

The measured values listed here are drawn from PubChem BioAssay (NCI).
